Biological target: PI3Kγ (Homo sapiens)
Construct: made in house
Sequence (P48736 whole entry): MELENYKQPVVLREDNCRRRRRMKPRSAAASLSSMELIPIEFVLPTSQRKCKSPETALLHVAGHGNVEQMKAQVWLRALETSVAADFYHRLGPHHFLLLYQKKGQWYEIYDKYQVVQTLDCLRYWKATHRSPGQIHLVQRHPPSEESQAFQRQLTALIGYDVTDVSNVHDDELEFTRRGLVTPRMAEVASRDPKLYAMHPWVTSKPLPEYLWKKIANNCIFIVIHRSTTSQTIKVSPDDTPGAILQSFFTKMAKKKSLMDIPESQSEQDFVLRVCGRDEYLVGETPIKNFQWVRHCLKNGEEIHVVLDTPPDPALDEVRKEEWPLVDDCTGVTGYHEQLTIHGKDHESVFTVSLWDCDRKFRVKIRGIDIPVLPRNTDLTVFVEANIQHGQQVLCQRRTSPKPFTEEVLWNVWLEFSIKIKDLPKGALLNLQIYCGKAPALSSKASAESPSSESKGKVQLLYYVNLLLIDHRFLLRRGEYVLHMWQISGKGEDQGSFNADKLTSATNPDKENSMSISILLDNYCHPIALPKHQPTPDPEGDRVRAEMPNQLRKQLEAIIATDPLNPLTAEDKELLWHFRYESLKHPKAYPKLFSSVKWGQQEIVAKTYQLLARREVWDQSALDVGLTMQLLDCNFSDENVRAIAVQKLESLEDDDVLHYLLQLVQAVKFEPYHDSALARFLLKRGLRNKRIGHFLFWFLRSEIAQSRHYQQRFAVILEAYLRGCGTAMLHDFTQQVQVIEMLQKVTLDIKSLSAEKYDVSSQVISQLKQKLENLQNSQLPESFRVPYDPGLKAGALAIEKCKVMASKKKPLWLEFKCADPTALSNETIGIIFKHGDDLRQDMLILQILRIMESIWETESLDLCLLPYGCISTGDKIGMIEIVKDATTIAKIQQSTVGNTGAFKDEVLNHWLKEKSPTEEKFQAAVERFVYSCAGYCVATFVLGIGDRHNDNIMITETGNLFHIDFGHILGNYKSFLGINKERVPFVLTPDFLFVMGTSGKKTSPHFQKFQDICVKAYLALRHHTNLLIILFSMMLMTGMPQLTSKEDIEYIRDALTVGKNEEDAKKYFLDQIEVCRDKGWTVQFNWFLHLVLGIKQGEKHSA
Assay: TR-FRET enzymatic activity assay, PI3Kγ
Type: biochemical
Settings: Table 2a; same assay; read-out: PI3Kγ IC50
Method: The compounds of formula (I) were characterized for their enzymatic activity against the PI3K isoforms. The activities were measured using a time-resolved fluorescence resonance energy transfer (TR-FRET) assay.
PROPERTY_NAME: IC50 (µM)

SMILES_ENTRY | MEASURED_RESULT
C[C@H](Nc1nc(N)nc(C(F)F)c1C#N)c1nc2c(F)cccc2c(=O)n1-c1cc[nH]n1 | 4.3
N#Cc1c(N[C@H](c2nc3c(F)ccc(Cl)c3c(=O)n2-c2cc[nH]n2)C2CC2)nc(N)nc1C(F)F | 2.2
C[C@H](NC(=O)c1nc(Cl)c(N)nc1N)c1nc2cccc(Cl)c2c(=O)n1-c1cc[nH]n1 | 0.28

[A] N#Cc1c(N)nc(N)nc1N[C@H](c1nc2c(C(F)F)cc(F)cc2c(=O)n1-c1cc[nH]n1)C1CC1
[B] C[C@H](Nc1nc(N)nc(N)c1Cl)c1nc2cccc(C(F)(F)F)c2c(=O)n1-c1cc[nH]n1
# returns the entry with the larger IC50; inputs A and B Bench note: the answer is the label of the chosen record.
A
(A: 7.5 µM, B: 4.4 µM)

[I] Cc1c[nH]nc1-n1c([C@@H](Nc2nc(N)nc(N)c2C#N)C2CC2)nc2cccc(Cl)c2c1=O
[II] C[C@H](Nc1nc(N)nc(N)c1C#N)c1nc2cccc(C(F)(F)F)c2c(=O)n1-c1cc[nH]n1
Rank I against II by their IC50 values and give the higher one. // respond with label for picked entry
I

* * *

target: PI3Kβ (Homo sapiens, UniProt P42338); construct: made in house; test: TR-FRET enzymatic activity assay, PI3Kβ; format: biochemical; conditions: Table 2a; same assay
Sequence (P42338 whole entry): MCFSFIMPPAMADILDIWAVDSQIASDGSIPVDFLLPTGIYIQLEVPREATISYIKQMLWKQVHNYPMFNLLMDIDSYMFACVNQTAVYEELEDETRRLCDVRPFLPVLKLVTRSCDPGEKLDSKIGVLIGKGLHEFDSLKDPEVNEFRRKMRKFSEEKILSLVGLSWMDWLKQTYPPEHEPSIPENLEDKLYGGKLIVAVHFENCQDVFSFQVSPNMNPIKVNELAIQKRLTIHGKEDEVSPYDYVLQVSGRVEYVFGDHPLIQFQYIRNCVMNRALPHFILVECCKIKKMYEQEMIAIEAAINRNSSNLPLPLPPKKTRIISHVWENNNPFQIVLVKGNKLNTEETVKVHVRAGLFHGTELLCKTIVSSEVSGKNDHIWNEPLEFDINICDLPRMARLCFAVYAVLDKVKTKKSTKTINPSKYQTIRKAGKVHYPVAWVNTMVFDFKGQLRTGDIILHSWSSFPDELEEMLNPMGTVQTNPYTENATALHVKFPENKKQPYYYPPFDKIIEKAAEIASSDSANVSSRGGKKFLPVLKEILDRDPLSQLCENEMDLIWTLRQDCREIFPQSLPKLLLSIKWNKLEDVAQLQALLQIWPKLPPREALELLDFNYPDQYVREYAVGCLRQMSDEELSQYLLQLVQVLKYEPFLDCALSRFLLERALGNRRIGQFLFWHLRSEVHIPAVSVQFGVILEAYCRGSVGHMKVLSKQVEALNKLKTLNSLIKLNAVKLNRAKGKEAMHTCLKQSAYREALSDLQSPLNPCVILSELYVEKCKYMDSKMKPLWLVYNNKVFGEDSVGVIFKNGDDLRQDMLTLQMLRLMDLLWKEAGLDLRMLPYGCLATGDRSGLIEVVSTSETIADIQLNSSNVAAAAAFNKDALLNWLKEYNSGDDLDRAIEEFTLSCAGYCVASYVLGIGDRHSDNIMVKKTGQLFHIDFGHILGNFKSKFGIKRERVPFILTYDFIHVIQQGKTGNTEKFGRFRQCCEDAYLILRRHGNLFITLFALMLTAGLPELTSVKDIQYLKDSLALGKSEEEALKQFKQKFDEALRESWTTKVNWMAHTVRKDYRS
Sequence (P27986 whole entry partner): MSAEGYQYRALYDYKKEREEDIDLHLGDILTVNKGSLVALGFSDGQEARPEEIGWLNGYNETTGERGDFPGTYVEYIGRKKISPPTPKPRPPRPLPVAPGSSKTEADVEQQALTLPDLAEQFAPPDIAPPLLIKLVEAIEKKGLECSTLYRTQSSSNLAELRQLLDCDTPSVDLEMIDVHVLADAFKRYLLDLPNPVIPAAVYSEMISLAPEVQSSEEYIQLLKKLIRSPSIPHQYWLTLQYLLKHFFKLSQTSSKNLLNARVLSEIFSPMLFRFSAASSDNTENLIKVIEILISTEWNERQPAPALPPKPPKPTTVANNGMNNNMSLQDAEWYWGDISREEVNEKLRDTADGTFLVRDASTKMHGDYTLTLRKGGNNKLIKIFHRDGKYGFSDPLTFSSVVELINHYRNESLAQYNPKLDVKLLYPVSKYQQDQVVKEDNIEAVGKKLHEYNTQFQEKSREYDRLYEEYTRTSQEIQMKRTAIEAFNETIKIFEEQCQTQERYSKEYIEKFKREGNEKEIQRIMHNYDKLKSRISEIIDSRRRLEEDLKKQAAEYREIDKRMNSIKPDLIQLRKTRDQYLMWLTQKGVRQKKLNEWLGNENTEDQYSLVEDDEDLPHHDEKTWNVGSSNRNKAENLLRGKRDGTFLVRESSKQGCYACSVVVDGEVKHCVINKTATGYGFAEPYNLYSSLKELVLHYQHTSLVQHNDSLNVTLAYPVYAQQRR
pIC50: −log10 of the molar value.
PROPERTY_NAME: pIC50

# example entries with known answers
SMILES_ENTRY | ASSAYED_SYSTEM | MEASURED_RESULT
C[C@H](Nc1ncnc2sncc12)c1nc2cccc(Cl)c2c(=O)n1-c1cc[nH]n1 | PI3Kβ (Homo sapiens, UniProt P42338) | 6.96
C[C@H](Nc1nc(N)nc(N)c1Cl)c1nc2c(Cl)cccc2c(=O)n1-c1cc[nH]n1 | PI3Kβ (Homo sapiens, UniProt P42338) | 7.59

[1] CCC[C@H](Nc1nc(N)nc(N)c1Cl)c1nc2c(Cl)ccc(Cl)c2c(=O)n1-c1cc[nH]n1
[2] Nc1nc(N)c(Cl)c(N[C@H](c2nc3c(Cl)cc(F)cc3c(=O)n2-c2c[nH]cn2)C2CC2)n1
Given 1 and given 2 , which shows the smaller recorded pIC50? Use the label to indicate which entry you chose.
2
(2: 6.43, 1: 6.82)

* * *

molecular target: PI3Kγ (Homo sapiens); construct: made in house; assay: TR-FRET enzymatic activity assay, PI3Kγ; assay type: biochemical; conditions: Table 2a; same assay; read-out: PI3Kγ IC50
pIC50: −log10 of the molar value.
PROPERTY_NAME: pIC50

In the examples that follow, each entry is paired with its recorded pIC50.
SMILES_ENTRY | pIC50
N#Cc1c(N)nc(N)nc1N[C@H](c1nc2cccc(C(F)F)c2c(=O)n1-c1cc[nH]n1)C1CC1 | 6.62
C[C@H](Nc1nc(N)nc(N)c1Cl)c1nc2cccc(Cl)c2c(=O)n1-c1cn[nH]c1 | 5.92

[1] N#Cc1c(N)nc(N)nc1N[C@H](c1nc2c(C(F)(F)F)cccc2c(=O)n1-c1cc[nH]n1)C1CC1
[2] C[C@H](Nc1nc(N)nc(N)c1Cl)c1nc2c(C(F)(F)F)cccc2c(=O)n1-c1cc[nH]n1
[3] Cc1n[nH]cc1-n1c([C@H](C)Nc2nc(N)nc(N)c2C#N)nc2cccc(Cl)c2c1=O
[4] Nc1nc(N)c(Cl)c(N[C@H](c2nc3cccc(C(F)F)c3c(=O)n2-c2cc[nH]n2)C2CC2)n1
Please produce an ascending ranking of these molecules based on pIC50. Provide the labels, sequenced as the question asks.
2, 4, 1, 3

Values compiled from patent US10308639B2.
